- assay-details: PK studies in mice
- conditions-used: female, CD-1, mouse, plasma, other: i.v. and i.p.
quantity-name: Cmax

What value of Cmax has been reported for the following compound? CN1CC(C(=O)NCc2ccc3c(-c4cccc(C(N)=S)c4)cn(C4CCN(S(=O)(=O)C(F)(F)F)CC4)c3c2)C1 [AS-99]
> 10 µM

---

- assay-details: PK studies in mice
- conditions-used: female, CD-1, mouse, plasma, iv, 15 mg/kg, blood plasma level of AS-99, i.v., time 2 h
quantity-name: concentration at 2 h (nM)
Give a bare numeral; the unit nM is implied.

What value of concentration at 2 h has been reported for the following molecule? CN1CC(C(=O)NCc2ccc3c(-c4cccc(C(N)=S)c4)cn(C4CCN(S(=O)(=O)C(F)(F)F)CC4)c3c2)C1 [AS-99]
854

---

- assay-details: PK studies in mice
- conditions-used: female, CD-1, mouse, plasma, iv, 15 mg/kg
quantity-name: AUC (ng·h/mL)
Give a bare numeral; the unit ng·h/mL is implied.

What value of AUC has been reported for the following compound? CN1CC(C(=O)NCc2ccc3c(-c4cccc(C(N)=S)c4)cn(C4CCN(S(=O)(=O)C(F)(F)F)CC4)c3c2)C1 [AS-99]
9700

---

- assay-details: PK studies in mice
- conditions-used: female, CD-1, mouse, plasma, ip, 30 mg/kg
quantity-name: AUC (ng·h/mL)
Give a bare numeral; the unit ng·h/mL is implied.

What value of AUC has been reported for the following compound? `CN1CC(C(=O)NCc2ccc3c(-c4cccc(C(N)=S)c4)cn(C4CCN(S(=O)(=O)C(F)(F)F)CC4)c3c2)C1`
10700

---

- assay-details: PK studies in mice
- conditions-used: female, CD-1, mouse, plasma, iv, 15 mg/kg, blood plasma level of AS-99, i.v., time 0.5 h
quantity-name: concentration at 0.5 h

What value of concentration at 0.5 h has been reported for the following compound? `CN1CC(C(=O)NCc2ccc3c(-c4cccc(C(N)=S)c4)cn(C4CCN(S(=O)(=O)C(F)(F)F)CC4)c3c2)C1`
5.2 µM

---

- assay-details: PK studies in mice
- conditions-used: female, CD-1, mouse, plasma, iv, 15 mg/kg, blood plasma level of AS-99, i.v., time 16 h
quantity-name: concentration at 16 h (nM)
Give a bare numeral; the unit nM is implied.

What value of concentration at 16 h has been reported for the following molecule? CN1CC(C(=O)NCc2ccc3c(-c4cccc(C(N)=S)c4)cn(C4CCN(S(=O)(=O)C(F)(F)F)CC4)c3c2)C1 [AS-99]
24.7

---

- tested-target: ASH1L (amino acids 2046–2330) (Homo sapiens, UniProt Q9NR48)
quantity-name: IC50 (µM)
Give a bare numeral; the unit µM is implied.

What value of IC50 has been reported for the following compound? `NCc1ccc2c(-c3cccc(C(N)=S)c3)cn(CCO)c2c1`
4

---

- assay-details: PK studies in mice
- conditions-used: female, CD-1, mouse, plasma, ip, 30 mg/kg, blood plasma level of AS-99, i.p., time 0.5 h
quantity-name: concentration at 0.5 h (µM)
Give a bare numeral; the unit µM is implied.

What value of concentration at 0.5 h has been reported for the following compound? `CN1CC(C(=O)NCc2ccc3c(-c4cccc(C(N)=S)c4)cn(C4CCN(S(=O)(=O)C(F)(F)F)CC4)c3c2)C1`
6.58

---

- assay-details: PK studies in mice
- conditions-used: female, CD-1, mouse, plasma, iv, 15 mg/kg, blood plasma level of AS-99, i.v., time 0.25 h
quantity-name: concentration at 0.25 h (µM)
Give a bare numeral; the unit µM is implied.

What value of concentration at 0.25 h has been reported for the following compound? CN1CC(C(=O)NCc2ccc3c(-c4cccc(C(N)=S)c4)cn(C4CCN(S(=O)(=O)C(F)(F)F)CC4)c3c2)C1 [AS-99]
6.62

---

- assay-details: PK studies in mice
- conditions-used: female, CD-1, mouse, plasma, iv, 15 mg/kg, blood plasma level of AS-99, i.v., time 1 h
quantity-name: concentration at 1 h (nM)
Give a bare numeral; the unit nM is implied.

What value of concentration at 1 h has been reported for the following molecule? CN1CC(C(=O)NCc2ccc3c(-c4cccc(C(N)=S)c4)cn(C4CCN(S(=O)(=O)C(F)(F)F)CC4)c3c2)C1 [AS-99]
1780

---

- assay-details: PK studies in mice
- conditions-used: female, CD-1, mouse, plasma, iv, 15 mg/kg, blood plasma level of AS-99, i.v., time 7 h
quantity-name: concentration at 7 h (nM)
Give a bare numeral; the unit nM is implied.

What value of concentration at 7 h has been reported for the following compound? `CN1CC(C(=O)NCc2ccc3c(-c4cccc(C(N)=S)c4)cn(C4CCN(S(=O)(=O)C(F)(F)F)CC4)c3c2)C1`
126

---

- assay-details: PK studies in mice
- conditions-used: female, CD-1, mouse, plasma, ip, 30 mg/kg, blood plasma level of AS-99, i.p., time 16 h
quantity-name: concentration at 16 h
Please state the number and follow it with the unit.

What value of concentration at 16 h has been reported for the following molecule? `CN1CC(C(=O)NCc2ccc3c(-c4cccc(C(N)=S)c4)cn(C4CCN(S(=O)(=O)C(F)(F)F)CC4)c3c2)C1`
84 nM

---

- assay-details: PK studies in mice
- conditions-used: female, CD-1, mouse, plasma, iv, 15 mg/kg, blood plasma level of AS-99, i.v., time 0.083 h
quantity-name: concentration at 0.083 h (µM)
Give a bare numeral; the unit µM is implied.

What value of concentration at 0.083 h has been reported for the following compound? CN1CC(C(=O)NCc2ccc3c(-c4cccc(C(N)=S)c4)cn(C4CCN(S(=O)(=O)C(F)(F)F)CC4)c3c2)C1 [AS-99]
25.8

All values here come from paper PMC8121805.
